# Tested on: SF-295 CNS
# PROTOCOL NOTES: NCI-60 one-dose screen, 48 h
# DETAILS: 10 µM unless noted
This is part of a sample that, as a whole, favours compounds with a hit. Of some 83,000 tested, about 20% had one in any assay. Active and inactive are the calls of the source. How the source made its calls: active means growth percent below 10; inactive means the rest.
Pick one: True for active, False for inactive

Answered examples (3):
INSERT INTO results (compound, group_label) VALUES
  ('O=C(Nc1cccc(Cn2c(=O)[nH]c3ccc(Oc4ncccn4)cc3c2=O)c1)c1cccc(Cl)c1', 'False'),
  ('O=C(O)c1nn(-c2ccc(Cl)cc2)nc1N1CCCC1', 'False'),
  ('O=C1c2ccccc2-c2c1c1ccncc1c(=O)n2CCCn1ccnc1', 'False');

query: // return assay outcome for O=C(CSc1nc(-c2ccccc2)cn1-c1ccc(Cl)cc1)c1ccc([N+](=O)[O-])cc1
result: False

query: // return assay outcome for CC1=NC(=S)NC(c2ccccc2)/C1=C1/CC(c2ccccc2O)NN1 (centres undefined)
result: False

query: // return assay outcome for CN1CCN(Cc2ccc(NC(=O)c3cc(C#Cc4cnc(N)c5ncccc45)n(C)n3)cc2C(F)(F)F)CC1
result: False

query: // return assay outcome for C[C@H]1c2ccccc2CN1CCCOc1cc2c(cc1OCC1CC1)C1(CCCC1)C(N)=N2
result: False

query: // return assay outcome for CNC(=O)c1cc(Oc2ccc3nc(NC(=O)c4cc(C(F)(F)F)cc(C(F)(F)F)c4)sc3c2)ccn1
result: True

query: // return assay outcome for O=S(=O)(Nc1ccc(Br)cc1)c1ccc(-c2cnc(C3CC3)o2)cc1
result: False

---

growth: recorded values
# System: UACC-257 melanoma
# PROTOCOL NOTES: NCI-60 one-dose screen, 48 h (100 = growth as untreated, 0 = no growth, -100 = all killed)
# DETAILS: 10 µM unless noted
The panel holds about 83,000 compounds, 20% with a hit somewhere; the sample as a whole holds those more often.
Give a bare numeral; the unit % is implied.

Consider the worked cases shown below.
INSERT INTO results (compound, assay_result) VALUES
  ('Cn1ccnc1C(=O)/C=C/c1ccc(C(=O)Nc2ccccc2F)cc1', 66.7),
  ('COc1cc(-c2ccc(-c3ccc(C(=N)N)s3)s2)cc(OC)c1OC', 75.7),
  ('C=C(c1ccc(OC)c(/C=C/C(=O)c2cc(OC)c(OC)c(OC)c2)c1)c1cc(OC)c(OC)c(OC)c1', 2.85),
  ('COc1cc(C)cc(-c2c(-c3cc(N4CC(O)C4)nc(-c4cccnc4)n3)cnn2C)c1', 109),
  ('N#CC1=C(N)Oc2c(ccc3cccnc23)C1c1ccccc1 (stereo not given)', 74.4),
  ('CCN1CCN(c2nc(NNC(=O)c3ccc(OC)cc3)nc(N3CCN(C(c4ccccc4)c4ccccc4)CC3)n2)CC1', 10.3),
  ('O=CN1N=C(c2cccc(Nc3ccncc3)c2)CC1c1ccc2c(c1)OCO2 (stereo not given)', 80.1),
  ('CCCCCN(CCCCC)CC(O)c1c(Cl)ccc2ccccc12 (stereo not given)', 83.1);

query: Report growth for COc1cc(/C=C2\C(=O)N(CCOc3cc(O)c4c(=O)cc(-c5ccccc5)oc4c3)c3ccccc32)cc(OC)c1O tested on UACC-257 melanoma.
result: 104

query: Report growth for CC/C(=C(/c1ccc(Cl)cc1)c1ccc(OCCCN(C)C)cc1)c1ccc(OC)cc1 tested on UACC-257 melanoma.
result: 84.7

Provenance of the data: PubChem BioAssay (NCI)
